- assayed-target: GlcNAc(b1-2)Man(a1-3)[GlcNAc(b1-2)Man(a1-6)]Man(b1-4)GlcNAc(b1-4)[Fuc(a1-6)]GlcNAc
- test-description: glycan array binding signal (z-score within array); higher = stronger binding
- assay-context: glycan notation: IUPAC condensed, linker removed
The sample as a whole holds a higher share of the strongest signals than the screen did.
measured-attribute: glycan array binding signal (z-score)
// response body must contain only the number

FedF (Escherichia coli), Q47212 (protein) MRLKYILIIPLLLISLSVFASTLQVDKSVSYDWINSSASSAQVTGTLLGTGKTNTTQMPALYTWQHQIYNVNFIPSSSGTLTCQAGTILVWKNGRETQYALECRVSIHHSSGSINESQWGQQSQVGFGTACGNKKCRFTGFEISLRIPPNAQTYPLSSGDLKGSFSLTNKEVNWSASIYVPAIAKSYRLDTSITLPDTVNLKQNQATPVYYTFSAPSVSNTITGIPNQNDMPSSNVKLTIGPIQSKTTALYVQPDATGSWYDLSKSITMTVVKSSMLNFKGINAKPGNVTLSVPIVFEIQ :: 1.99

Task: Please give the measured glycan array binding signal (z-score) for this binder: PA-IL (Pseudomonas aeruginosa), Q05097 (protein) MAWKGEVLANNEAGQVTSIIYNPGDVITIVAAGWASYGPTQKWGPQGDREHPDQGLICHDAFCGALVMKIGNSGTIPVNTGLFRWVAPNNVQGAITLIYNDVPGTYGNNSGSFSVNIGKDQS
Output: -0.214

Task: And then FliC (Clostridium difficile) (protein) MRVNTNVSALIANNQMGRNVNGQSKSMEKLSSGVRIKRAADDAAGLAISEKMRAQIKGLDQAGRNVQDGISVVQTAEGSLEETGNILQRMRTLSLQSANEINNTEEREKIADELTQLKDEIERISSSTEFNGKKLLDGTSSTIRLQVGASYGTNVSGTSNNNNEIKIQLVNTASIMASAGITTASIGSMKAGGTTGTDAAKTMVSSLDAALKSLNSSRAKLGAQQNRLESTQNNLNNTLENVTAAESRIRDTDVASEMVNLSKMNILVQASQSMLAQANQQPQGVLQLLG , what is it?
Output: 0.458
